These entries and their values trace back to patent US20220372040A1.

Test system: MOLM-13 cells
Assay: MOLM-13 48 Hour cell proliferation assay (Cell Titer-Glo)
Type: cell-based
Conditions: Homo sapiens
pIC50: −log10 of the molar value.
In this section, each of the compounds is paired with its reported pIC50.

MOL SMILES | pIC50
CNc1ccc2ccc(OCc3cncc(-n4cc(C5CCCC5)c5c(N)ncnc54)c3)cc2n1 | > 6.00
CCc1cc(NCCOC)c2ccc(OCc3cncc(-n4ccc5c(N)ncnc54)c3)cc2n1 | 5.00 to 6.00
CCc1cc(NCCN(C)C)c2ccc(OCc3cncc(-n4ccc5c(N)ncnc54)c3)cc2n1 | 5.00 to 6.00
CNc1ccc2cc(CCc3cccc(-n4cc(Cl)c5c(N)ncnc54)c3)ccc2n1 | 5.00 to 6.00
CNc1ccc2ccc(OCc3cncc(-n4ccc5c(N)ncnc54)n3)cc2n1 | 5.00 to 6.00
CNc1ccc2ccc(OCc3cncc(-n4cc(-c5ccnn5C)c5c(N)ncnc54)c3)cc2n1 | > 6.00
CNc1ccc2ccc(CCc3cncc(-n4cc(-c5ccn(C)n5)c5c(N)ncnc54)c3)cc2n1 | > 6.00
CNc1ccc2ccc(OCc3cncc(-n4c(C)cc5c(N)ncnc54)c3)cc2n1 | 5.00 to 6.00
CCc1cc(NCCOC)c2ccc(OCc3cncc(-c4c[nH]c5c(N)ncnc45)c3)cc2n1 | ≤ 5.00
CNc1ccc2ccc(OCc3cncc(-n4cc(CC5CC5)c5c(N)ncnc54)c3)cc2n1 | > 6.00
